System: crabgrass, large
Method: Test A postemergence
Format: in vivo, Digitaria sanguinalis
Applied conditions: postemergence, 125 g ai/ha, about 10 days, visual rating on 0 to 100 scale (0 no effect, 100 complete control)
Recorded metric: Crabgrass, Large plant response rating
The reply should be a number, written without any unit.

Would you kindly share the measured Crabgrass, Large plant response rating for CCCNC(=O)c1cc(CC)n(Cc2ccnc(OC(F)F)c2)n1 ?
90

Ok, now CCCCc1cc(C(=O)NCCC)nn1Cc1ccnc(C(F)(F)F)c1
20

Would you mind doing CCCCc1cc(C(=O)NC2CC2)nn1Cc1ccnc(C(F)(F)F)c1 as well?
30

Record: CCc1cc(C(=O)NCC(F)(F)F)nn1Cc1nnc(C(F)(F)F)o1
10

Similarly, CCOc1cc(C(=O)NC(C)C)nn1Cc1ccnc(C(F)(F)F)c1 ?
90

Same question for CCCNC(=O)c1cc(I)n(Cc2cccc(C(F)(F)F)c2)n1 please.
10

Field entry: CCNC(=O)c1cc(CC)n(Cc2ccnc(C(F)(F)F)c2)n1
90

Entry to check: O=C(NC1CC1)c1cc(Br)n(Cc2cccc(C(F)(F)F)c2)n1
20

Now the same for CCc1cc(C(=O)NC2CC2)nn1Cc1ccnc(OC(F)F)c1
90

---

Provide the recorded Barnyardgrass plant response rating for the entries that follow.
Test system: barnyardgrass
Method: Test C preemergence
Assay type: in vivo, Echinochloa crus-galli
Applied conditions: preemergence, 31 g ai/ha; visual rating, scale 0 to 100 (0 no effect, 100 complete control), 13 to 15 days
API doc: respond with a numeric literal and nothing else, no unit.

Hello, I am looking for reported Barnyardgrass plant response rating with barnyardgrass for CCCc1cc(C(=O)NOCC)nn1Cc1ccnc(C(F)(F)F)c1 . Could you help?
55

Next record, please: CCNC(=O)c1cc(CCCl)n(Cc2ccnc(C(F)(F)F)c2)n1
60

Consider next the compound CCONC(=O)c1cc(OCC)n(Cc2ccnc(C(F)(F)F)c2)n1 in the same way.
60

For Cc1cc(C(=O)NC(C)C)nn1Cc1ccnc(C(F)(F)F)c1 then?
65

Please do the same for CCCNC(=O)c1cc(CCC)n(Cc2cc(C(F)(F)F)nn2C)n1 as well.
100

// same read-out, input: O=C(NCC(F)(F)F)c1cc(CCCl)n(Cc2ccnc(C(F)(F)F)c2)n1
75

Ok, now CCc1cc(C(=O)NC2CC2)nn1Cc1cc(C(F)(F)C(F)(F)F)nn1C
10

---

Tested on: nutsedge, yellow
Method: Test C preemergence
Assay type: in vivo, Cyperus esculentus
Applied conditions: preemergence, 125 g ai/ha; 13 to 15 days; scale 0 to 100, 0 = no effect, 100 = complete control
Please respond with reported Plant response rating, Nutsedge, Yellow for every item in the list.
Hey, just send me the number, nothing else.

Can you look up the measured Plant response rating, Nutsedge, Yellow of CCOc1cc(C(=O)NC2CC2)nn1Cc1ccnc(OC(F)F)c1 for me?
70

Another compound to check: CCc1cc(C(=O)NCC2CC2)nn1Cc1ccnc(C(F)(F)F)c1
80

And CCc1cc(C(=O)NC(C)C)nn1Cc1ccnc(C(F)(F)F)c1 ?
35

Could you do the same for CCc1cc(C(=O)NC2CC2)nn1Cc1ccnc(OCC(F)(F)F)c1 , please?
40

Next entry: CCOc1cc(C(=O)NC2CC2)nn1Cc1ccnc(C(F)(F)F)c1
85

Same lookup for CCOc1cc(C(=O)NC(C)C)nn1Cc1ccnc(C(F)(F)F)c1 , please.
95
